# measurement_target: UniProtKB O85361
# Sequence (O85361 whole entry): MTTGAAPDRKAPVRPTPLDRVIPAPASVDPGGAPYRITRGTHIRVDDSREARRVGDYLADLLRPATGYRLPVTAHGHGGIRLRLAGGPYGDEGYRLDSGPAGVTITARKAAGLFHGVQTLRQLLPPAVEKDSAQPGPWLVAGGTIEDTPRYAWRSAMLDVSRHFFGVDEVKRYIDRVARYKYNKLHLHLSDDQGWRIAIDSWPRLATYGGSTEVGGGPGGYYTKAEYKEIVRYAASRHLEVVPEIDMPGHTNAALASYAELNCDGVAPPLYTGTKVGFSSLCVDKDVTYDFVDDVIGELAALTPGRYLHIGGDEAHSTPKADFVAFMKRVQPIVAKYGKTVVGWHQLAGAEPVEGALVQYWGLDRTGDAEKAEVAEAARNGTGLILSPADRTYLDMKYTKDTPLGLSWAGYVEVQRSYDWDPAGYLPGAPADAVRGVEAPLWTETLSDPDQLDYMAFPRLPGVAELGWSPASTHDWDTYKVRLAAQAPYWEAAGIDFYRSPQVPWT
endpoint_label: Ki (µM)

(A) CC1=N[C@@H]2[C@@H](O)[C@@H](O)[C@@H](CO)O[C@@H]2S1
(B) CC(=O)NC1NC[C@H](CO)[C@H](O)[C@@H]1O (single isomer, unassigned)
Identify the entry with the smaller Ki: A or B . Lab log: write the label of the selected item as the result.
B
(B: 21 µM, A: 100 µM)
